- Species: Homo sapiens
- protocolSummary: Half life upon exposure to human plasma
readoutName: half-life (h)
Give the number; h is assumed, so skip it.

Challenge: Report measured half-life; entry is Cc1cc(C(=O)Nc2cccn([C@@H](Cc3ccc(F)c(F)c3)C(=O)N[C@H](/C=C/C(=O)OC(C)C)C[C@@H]3CCNC3=O)c2=O)no1
Response given: 9.7

* * *

- experimentalSystem: Human rhinovirus A protease (Human rhinovirus sp.) (UniProt Q4U254)
- Sequence (whole entry): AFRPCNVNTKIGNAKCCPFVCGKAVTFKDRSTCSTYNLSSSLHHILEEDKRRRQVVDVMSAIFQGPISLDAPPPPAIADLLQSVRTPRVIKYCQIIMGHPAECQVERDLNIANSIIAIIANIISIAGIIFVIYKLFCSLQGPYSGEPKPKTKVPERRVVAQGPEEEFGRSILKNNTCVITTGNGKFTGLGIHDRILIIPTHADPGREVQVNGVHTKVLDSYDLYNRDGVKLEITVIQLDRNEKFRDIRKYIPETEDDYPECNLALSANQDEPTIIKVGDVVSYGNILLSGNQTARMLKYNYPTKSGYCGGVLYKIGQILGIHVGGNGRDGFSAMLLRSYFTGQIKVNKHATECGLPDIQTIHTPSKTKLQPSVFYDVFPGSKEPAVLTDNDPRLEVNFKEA
- protocolSummary: Inhibitory activity against Human Rhinovirus Protease 3C (serotype 14)
- experimentalParameters: Rhinovirus B
Below is a list of entries, each paired with its recorded K obs / 1 value.
Give the number; M⁻¹ s⁻¹ is assumed, so skip it.

Consider the worked cases shown below.
[
  {
    "smilesInput": "CCOC(=O)/C=C/[C@H](C[C@@H]1CCNC1=O)NC(=O)[C@H](Cc1ccc(F)c(F)c1)n1cccc(NC(=O)c2cc(C)on2)c1=O",
    "experimentalSystem": "Human rhinovirus A protease (Human rhinovirus sp.) (UniProt Q4U254)",
    "K obs / 1 [M⁻¹ s⁻¹]": "1.8e+06"
  },
  {
    "smilesInput": "CCOC(=O)/C=C/[C@H](CCC(N)=O)NC(=O)[C@H](CC1CCCCC1)n1cccc(NC(=O)OCc2ccccc2)c1=O",
    "experimentalSystem": "Human rhinovirus A protease (Human rhinovirus sp.) (UniProt Q4U254)",
    "K obs / 1 [M⁻¹ s⁻¹]": 6500
  },
  {
    "smilesInput": "CCOC(=O)/C=C/[C@H](C[C@H]1CCNC1=O)NC(=O)[C@H](Cc1ccccc1)n1cccc(NC(=O)OCc2ccccc2)c1=O",
    "experimentalSystem": "Human rhinovirus A protease (Human rhinovirus sp.) (UniProt Q4U254)",
    "K obs / 1 [M⁻¹ s⁻¹]": 6340
  }
]

Challenge: Report measured K obs / 1; entry is CCOC(=O)/C=C/[C@H](CCC(N)=O)NC(=O)[C@H](Cc1ccccc1)n1ccc(C)c(NC(=O)OCc2ccccc2)c1=O
Response given: 25800
